# target_under_test: recombinant hFAP (Homo sapiens, UniProt Q12884)
# Sequence (Q12884 26-760 limits assumed): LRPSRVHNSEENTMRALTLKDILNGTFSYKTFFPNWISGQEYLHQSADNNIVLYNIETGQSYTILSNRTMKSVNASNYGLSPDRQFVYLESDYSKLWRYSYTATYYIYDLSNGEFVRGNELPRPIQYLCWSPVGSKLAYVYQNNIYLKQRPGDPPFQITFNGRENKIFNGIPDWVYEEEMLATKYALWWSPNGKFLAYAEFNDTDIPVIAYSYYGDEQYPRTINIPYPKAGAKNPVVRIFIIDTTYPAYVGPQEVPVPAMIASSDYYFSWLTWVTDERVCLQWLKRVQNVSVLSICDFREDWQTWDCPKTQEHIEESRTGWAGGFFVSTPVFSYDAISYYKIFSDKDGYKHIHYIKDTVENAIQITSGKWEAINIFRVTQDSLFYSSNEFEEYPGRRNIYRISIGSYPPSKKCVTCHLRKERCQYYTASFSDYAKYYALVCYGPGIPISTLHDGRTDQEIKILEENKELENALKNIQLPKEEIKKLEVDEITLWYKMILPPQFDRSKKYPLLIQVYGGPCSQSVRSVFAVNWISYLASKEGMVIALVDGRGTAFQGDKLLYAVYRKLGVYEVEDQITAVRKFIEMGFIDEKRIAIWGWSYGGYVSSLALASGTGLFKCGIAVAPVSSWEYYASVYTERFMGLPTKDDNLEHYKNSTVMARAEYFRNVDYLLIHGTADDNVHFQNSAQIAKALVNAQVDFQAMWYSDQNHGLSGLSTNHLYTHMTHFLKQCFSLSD
# test: hFAP inhibition assay (Z-Gly-Pro-AMC substrate)
# experimental_setup: Z-Gly-Pro-AMC 20 μM; protein 66 μM; pH 7.4; room temperature
pIC50: −log10 of the molar value.
property: pIC50

compound	target_under_test	numeric_result
N#C[C@@H]1CC(F)(F)CN1C(=O)CNC(=O)c1ccnc2c(NC(=O)CCC(=O)NCCOCCOCCC(=O)NCCNC(=O)CCOCC(COCCC(=O)NCCNC(=O)CCOCCOCCNC(=O)CCC(=O)Nc3cccc4c(C(=O)NCC(=O)N5CC(F)(F)C[C@H]5C#N)ccnc34)(COCCC(=O)NCCNC(=O)CCOCCOCCNC(=O)CCC(=O)Nc3cccc4c(C(=O)NCC(=O)N5CC(F)(F)C[C@H]5C#N)ccnc34)NC(=O)CCC(C(=O)O)N3CCN(CC(=O)O)CCN(CC(=O)O)CCN(CC(=O)O)CC3)cccc12 (stereo partly drawn)	recombinant hFAP (Homo sapiens, UniProt Q12884)	10.42
N#C[C@@H]1CC(F)(F)CN1C(=O)CNC(=O)c1ccnc2c(NC(=O)CCC(=O)NCCOCCOCCOCCOCCOCCOCCC(=O)NCCNC(=O)CCOCC(COCCC(=O)NCCNC(=O)CCOCCOCCOCCOCCOCCOCCNC(=O)CCC(=O)Nc3cccc4c(C(=O)NCC(=O)N5CC(F)(F)C[C@H]5C#N)ccnc34)(COCCC(=O)NCCNC(=O)CCOCCOCCOCCOCCOCCOCCNC(=O)CCC(=O)Nc3cccc4c(C(=O)NCC(=O)N5CC(F)(F)C[C@H]5C#N)ccnc34)NC(=O)CCC(C(=O)O)N3CCN(CC(=O)O)CCN(CC(=O)O)CCN(CC(=O)O)CC3)cccc12 (stereo partly drawn)	recombinant hFAP (Homo sapiens, UniProt Q12884)	9.56
N#C[C@@H]1CC(F)(F)CN1C(=O)CNC(=O)c1ccnc2c(NC(=O)CCC(=O)NCCNC(=O)CCOCC(COCCC(=O)NCCNC(=O)CCC(=O)Nc3cccc4c(C(=O)NCC(=O)N5CC(F)(F)C[C@H]5C#N)ccnc34)(COCCC(=O)NCCNC(=O)CCC(=O)Nc3cccc4c(C(=O)NCC(=O)N5CC(F)(F)C[C@H]5C#N)ccnc34)NC(=O)CCC(C(=O)O)N3CCN(CC(=O)O)CCN(CC(=O)O)CCN(CC(=O)O)CC3)cccc12 (stereo partly drawn)	recombinant hFAP (Homo sapiens, UniProt Q12884)	10.92

The measured values listed here are drawn from patent US20260364214A1.
